# remaining at 20 min annotations
Assay: Metabolic stability of the compound in Sprague-Dawley rat plasma assessed as compound remaining at 1 mg/kg after 20 mins
Assay type: ADME, organism-based
Design: dose 1 mg/kg
Conditions: read-out: Stability
ENDPOINT_NAME: remaining at 20 min (%)

INSERT INTO results (smi, reading) VALUES
  ('Cc1cc(NC(=O)N(c2cccc(F)c2)C2CCN(Cc3ccc(Oc4ccc(NS(C)(=O)=O)cc4)nc3C)CC2)cnc1C(N)=O', 94),
  ('Cc1nc(Oc2ccc(NS(C)(=O)=O)cc2)ccc1CN1CCC(N(C(=O)Nc2cnc(C(N)=O)c(F)c2)c2cccc(F)c2)CC1', 42),
  ('Cc1nc(Oc2ccc(NS(C)(=O)=O)cc2)ccc1CN1CCC(N(C(=O)Nc2ccc(C(N)=O)nc2)c2cccc(F)c2)CC1', 44),
  ('Cc1nc(Oc2ccc(NS(C)(=O)=O)cc2)ccc1CN1CCC(N(C(=O)Nc2ccc(C(N)=O)nc2C)c2cccc(F)c2)CC1', 95);

###

Assay: Metabolic stability of the compound in Sprague-Dawley rat plasma assessed as compound remaining at 1 mg/kg after 45 mins
Format: ADME, organism-based
Set-up: dose 1 mg/kg
Conditions: Sprague-Dawley, plasma, read-out: Stability
# remaining at 0.75 h annotations
ENDPOINT_NAME: remaining at 0.75 h (%)

INSERT INTO results (smi, endpoint_name, reading) VALUES
  ('Cc1nc(Oc2ccc(NS(C)(=O)=O)cc2)ccc1CN1CCC(N(C(=O)Nc2ccc(C(N)=O)nc2)c2cccc(F)c2)CC1', 'remaining at 0.75 h', 11),
  ('Cc1nc(Oc2ccc(NS(C)(=O)=O)cc2)ccc1CN1CCC(N(C(=O)Nc2cnc(C(N)=O)c(F)c2)c2cccc(F)c2)CC1', 'remaining at 0.75 h', 12),
  ('Cc1nc(Oc2ccc(NS(C)(=O)=O)cc2)ccc1CN1CCC(N(C(=O)Nc2ccc(C(N)=O)nc2C)c2cccc(F)c2)CC1', 'remaining at 0.75 h', 74);

###

Assay: Metabolic stability of the compound in Sprague-Dawley rat plasma assessed as compound remaining at 1 mg/kg after 5 mins
Format: ADME, organism-based
Set-up: dose 1 mg/kg
Conditions: read-out: Stability
# remaining at 5 min annotations
ENDPOINT_NAME: remaining at 5 min (%)

INSERT INTO assay_data (smi, reading) VALUES
  ('Cc1nc(Oc2ccc(NS(C)(=O)=O)cc2)ccc1CN1CCC(N(C(=O)Nc2ccc(C(N)=O)nc2C)c2cccc(F)c2)CC1', 94),
  ('Cc1nc(Oc2ccc(NS(C)(=O)=O)cc2)ccc1CN1CCC(N(C(=O)Nc2ccc(C(N)=O)nc2)c2cccc(F)c2)CC1', 85),
  ('Cc1nc(Oc2ccc(NS(C)(=O)=O)cc2)ccc1CN1CCC(N(C(=O)Nc2cnc(C(N)=O)c(F)c2)c2cccc(F)c2)CC1', 86),
  ('Cc1cc(NC(=O)N(c2cccc(F)c2)C2CCN(Cc3ccc(Oc4ccc(NS(C)(=O)=O)cc4)nc3C)CC2)cnc1C(N)=O', 90);

###

Assay: Metabolic stability of the compound in Sprague-Dawley rat plasma assessed as compound remaining at 1 mg/kg after 10 mins
Type: ADME, organism-based
Design: dose 1 mg/kg
Conditions: read-out: Stability
ENDPOINT_NAME: remaining at 10 min

INSERT INTO measurements (smi, reading) VALUES
  ('Cc1nc(Oc2ccc(NS(C)(=O)=O)cc2)ccc1CN1CCC(N(C(=O)Nc2ccc(C(N)=O)nc2)c2cccc(F)c2)CC1', '67%'),
  ('Cc1cc(NC(=O)N(c2cccc(F)c2)C2CCN(Cc3ccc(Oc4ccc(NS(C)(=O)=O)cc4)nc3C)CC2)cnc1C(N)=O', '88%'),
  ('Cc1nc(Oc2ccc(NS(C)(=O)=O)cc2)ccc1CN1CCC(N(C(=O)Nc2ccc(C(N)=O)nc2C)c2cccc(F)c2)CC1', '91%'),
  ('Cc1nc(Oc2ccc(NS(C)(=O)=O)cc2)ccc1CN1CCC(N(C(=O)Nc2cnc(C(N)=O)c(F)c2)c2cccc(F)c2)CC1', '71%');
